experimental-system: Nuclear receptor coactivator 1 (Homo sapiens) (UniProt Q15788)
Sequence (Q15788 whole entry, looked up): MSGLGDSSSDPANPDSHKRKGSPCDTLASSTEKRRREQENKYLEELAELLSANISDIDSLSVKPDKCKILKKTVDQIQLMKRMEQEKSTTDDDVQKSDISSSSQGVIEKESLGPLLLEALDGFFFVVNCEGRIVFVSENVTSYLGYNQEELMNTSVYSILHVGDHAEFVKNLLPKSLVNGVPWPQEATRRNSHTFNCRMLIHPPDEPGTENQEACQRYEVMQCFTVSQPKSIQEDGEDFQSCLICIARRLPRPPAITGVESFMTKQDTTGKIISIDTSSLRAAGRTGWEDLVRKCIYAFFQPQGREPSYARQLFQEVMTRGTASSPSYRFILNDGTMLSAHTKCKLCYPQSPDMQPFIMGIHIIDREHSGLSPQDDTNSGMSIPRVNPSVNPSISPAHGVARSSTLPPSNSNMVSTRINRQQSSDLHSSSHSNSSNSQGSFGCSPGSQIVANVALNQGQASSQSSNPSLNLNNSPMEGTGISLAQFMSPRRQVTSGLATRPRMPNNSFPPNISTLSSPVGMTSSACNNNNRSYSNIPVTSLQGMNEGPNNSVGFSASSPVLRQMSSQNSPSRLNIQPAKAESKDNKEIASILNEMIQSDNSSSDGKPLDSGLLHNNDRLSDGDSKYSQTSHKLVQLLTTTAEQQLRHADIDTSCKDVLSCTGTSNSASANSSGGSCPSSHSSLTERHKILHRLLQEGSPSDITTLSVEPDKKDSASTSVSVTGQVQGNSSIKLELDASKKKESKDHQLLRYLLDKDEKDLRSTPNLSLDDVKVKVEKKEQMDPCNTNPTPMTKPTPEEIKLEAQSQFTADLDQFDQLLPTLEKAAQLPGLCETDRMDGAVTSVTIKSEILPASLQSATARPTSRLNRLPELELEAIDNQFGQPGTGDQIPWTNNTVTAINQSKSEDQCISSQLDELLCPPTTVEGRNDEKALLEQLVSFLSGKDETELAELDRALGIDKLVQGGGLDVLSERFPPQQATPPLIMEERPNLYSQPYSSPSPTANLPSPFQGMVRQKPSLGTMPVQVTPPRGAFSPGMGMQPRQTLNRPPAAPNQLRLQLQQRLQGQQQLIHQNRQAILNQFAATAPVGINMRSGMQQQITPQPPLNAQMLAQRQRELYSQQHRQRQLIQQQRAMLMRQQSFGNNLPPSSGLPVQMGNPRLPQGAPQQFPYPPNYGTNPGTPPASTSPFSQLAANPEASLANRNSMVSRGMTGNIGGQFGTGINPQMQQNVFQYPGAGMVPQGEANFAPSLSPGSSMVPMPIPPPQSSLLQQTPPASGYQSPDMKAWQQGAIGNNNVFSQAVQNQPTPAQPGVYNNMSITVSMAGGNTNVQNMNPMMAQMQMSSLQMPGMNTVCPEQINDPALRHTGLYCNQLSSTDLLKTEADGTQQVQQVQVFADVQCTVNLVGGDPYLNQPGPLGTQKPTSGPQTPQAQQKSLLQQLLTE
method-description: SRC1 coactivator transcriptional activity inhibitors, confirmation, cell-based, luminescence, quadruplicate (AID 588820);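 also: 0% = DMSO wells and 100% = gossypol 36 µM treated wells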
recorded-conditions: HEK293 GAL4-SRC1 luciferase reporter, at 3.6 µM, stronger effect = higher value
readout-type: inhibition (%)
Express the result in % but write the number alone.

CC(C)(C)c1ccc(-c2noc(CCC(N)=O)n2)cc1 : 59.7
C=CC[n+]1c(-c2ccc(C)cc2)csc1Nc1ccc(NC(C)=O)cc1 : 4.13
Nc1nc2c(nnn2C2CC(O)C(CO)O2)c(=O)[nH]1 (centres undefined) : 13.6
CN(C)CCNc1ccc2ncn3c4ccc(O)cc4c(=O)c1c23 : 23.2
CCN1CCS/C1=C/C=C/C1=[N+](CC)CCS1 : -22.7
COc1ccc(OC)c(/C=N/NC(=O)c2cc3c(OC)cccc3[nH]2)c1 : -19.2
COCCn1c(C)cc(C(=O)CSc2nc3ccccc3s2)c1C : -45.7
COc1ccccc1C(=O)Nc1nc(-c2ccc(S(=O)(=O)N3CCOCC3)cc2)cs1 : 41.6

Lookup: Give the value of inhibition reported for the following: O=C(CC(Nc1ccc(Cl)cc1Cl)C(=O)O)c1ccccc1 (centres undefined)
Found: -4.19

Lookup: Give the value of inhibition reported for the following: `c1ccc(-c2cccc(-c3ccccn3)n2)nc1`
Found: 56.6

Lookup: Give the value of inhibition reported for the following: `CCN(CC)c1ncnc2ccc(Br)cc12`
Found: 45.9

Lookup: Give the value of inhibition reported for the following: `c1ccc(CNc2c3ccccc3nc3ccccc23)cc1`
Found: 0.54

Lookup: Give the value of inhibition reported for the following: `COc1ccccc1NC(=S)NN=C(C)c1ccccn1`
Found: -16.5

Lookup: Give the value of inhibition reported for the following: `CC(C)(C)c1ccc(Oc2ccc(N)cn2)cc1`
Found: 2.49
